measurement_target: C. elegans (N2) complex I (NADH:ubiquinone oxidoreductase) (Caenorhabditis elegans, UniProt P24887+Q93873+Q94360)
Sequence (Q94360 17-199): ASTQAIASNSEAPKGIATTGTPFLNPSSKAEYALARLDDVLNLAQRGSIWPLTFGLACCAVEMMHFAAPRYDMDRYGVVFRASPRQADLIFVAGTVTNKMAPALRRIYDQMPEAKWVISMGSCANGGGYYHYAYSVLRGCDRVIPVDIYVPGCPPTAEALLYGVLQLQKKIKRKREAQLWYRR
Sequence (P24887 whole entry): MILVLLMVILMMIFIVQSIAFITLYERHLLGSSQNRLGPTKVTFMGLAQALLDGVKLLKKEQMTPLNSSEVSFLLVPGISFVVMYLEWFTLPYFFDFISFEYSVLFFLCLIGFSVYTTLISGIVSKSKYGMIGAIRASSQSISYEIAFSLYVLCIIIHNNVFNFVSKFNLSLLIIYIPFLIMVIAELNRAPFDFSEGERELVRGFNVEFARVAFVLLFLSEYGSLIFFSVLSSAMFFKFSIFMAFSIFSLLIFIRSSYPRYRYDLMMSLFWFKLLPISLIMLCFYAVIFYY
Sequence (Q93873 31-482): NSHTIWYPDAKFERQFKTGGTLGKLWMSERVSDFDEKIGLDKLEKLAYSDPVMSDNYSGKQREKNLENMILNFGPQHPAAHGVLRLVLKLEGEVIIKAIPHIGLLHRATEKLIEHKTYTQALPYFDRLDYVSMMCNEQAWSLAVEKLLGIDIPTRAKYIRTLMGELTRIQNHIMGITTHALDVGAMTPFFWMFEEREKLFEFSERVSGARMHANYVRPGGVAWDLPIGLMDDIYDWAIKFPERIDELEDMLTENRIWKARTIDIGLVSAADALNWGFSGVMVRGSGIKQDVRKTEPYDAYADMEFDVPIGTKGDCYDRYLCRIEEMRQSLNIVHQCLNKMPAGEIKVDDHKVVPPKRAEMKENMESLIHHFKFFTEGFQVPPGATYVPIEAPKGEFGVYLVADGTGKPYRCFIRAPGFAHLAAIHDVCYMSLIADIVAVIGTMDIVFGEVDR
protocol_summary: biochemical
Assay type: biochemical
measurement_context: in vitro complex I dose response on C. elegans mitochondria; average of at least two biological replicates; fit in R (DRC); read-out: IC50 C. elegans complex I
pIC50: −log10 of the molar value.

chemical_smiles: CCc1cc(OCCn2cnc3ccccc32)ccc1Cl
pIC50: 5.09
--
chemical_smiles: Cc1ccc(CSCc2nc3ccccc3[nH]2)cc1
pIC50: 4.54
--
chemical_smiles: Cc1nc2ccccc2n1Cc1ccc(C(C)(C)C)cc1
pIC50: 5.59
--
chemical_smiles: Clc1ccccc1OCCCCn1cnc2ccccc21
pIC50: 6.57
--
chemical_smiles: Cc1nc2ccccc2n1Cc1ccc(Br)cc1
pIC50: 7.49
--
chemical_smiles: CCc1ccc(CNc2nc3ccccc3n2C)cc1
pIC50: 4.39
